# Test system: 422866-222-R5-J1-PDC complex spheroids viability
# Procedure Details: Anticancer human tumor 422866-222-R5-J1-PDC patient-derived pancreatic adenocarcinoma cell line growth inhibition [RAS]
# Setup Conditions: second compound 0.1 µM; first compound 1 µM; stronger effect = lower value

Compound | Unit Name | viability, T/C
C[C@@H](NC(=O)c1ncnc(N)c1Cl)c1ncc(C(=O)Nc2cc(C(F)(F)F)c(Cl)cn2)s1 + C=CC(=O)N1CCN(c2nc(OCC3CCCN3C)nc3c(F)c(-c4nc(N)cc(C)c4C(F)(F)F)c(Cl)cc23)C(C)C1 | % | 30.3
O=C(c1ccc(F)c(F)c1Nc1ccc(I)cc1F)N1CC(O)([C@@H]2CCCCN2)C1 + C#Cc1c(F)ccc2cc(O)cc(-c3ncc4c(N5CC6CCC(C5)N6)nc(OCC56CCCN5CC(F)C6)nc4c3F)c12 | % | 46.6
CCC(CC)c1cc(NC2CCC(N)C2)n2nccc2n1 (stereo not drawn) + C=CC(=O)N1CCN(c2nc(OCC3CCCN3C)nc3c(F)c(-c4nc(N)cc(C)c4C(F)(F)F)c(Cl)cc23)C(C)C1 | % | 25.6

###

# Tested on: 422866-222-R5-J1-PDC complex spheroids viability
# Procedure Details: Anticancer human tumor 422866-222-R5-J1-PDC cell line growth inhibition [RAS];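 note: spheroids exposed to compounds for 7 days; 100% = DMSO vehicle control viability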
# Setup Conditions: second compound 0.3 µM; first compound 0.0316 µM; stronger effect = lower value

Compound | viability, T/C
CC(C)n1nc(-c2ccc3oc(N)nc3c2)c2c(N)ncnc21 + CCn1c(-c2cc(N3CCN(C)CC3)cnc2C(C)OC)c2c3cc(ccc31)-c1csc(n1)CC(NC(=O)C1CC1C)C(=O)N1CCCC(N1)C(=O)OCC(C)(C)C2 | 14.5%
O=C(c1ccc(F)c(F)c1Nc1ccc(I)cc1F)N1CC(O)([C@@H]2CCCCN2)C1 + CCn1c(-c2cccnc2C(C)OC)c2c3cc(ccc31)N1CCOC(CC(NC(=O)C(C(C)C)N(C)C(=O)C3(F)CCN(C(=O)C#CC(C)(C)N(C)C)CC3)C(=O)N3CCCC(N3)C(=O)OCC(C)(C)C2)C1 | 10.9%

###

# Test system: 422866-222-R5-J1-PDC complex spheroids viability
# Procedure Details: Anticancer human tumor 422866-222-R5-J1-PDC cell line growth inhibition [RAS];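 note: spheroids exposed to compounds for 7 days; 100% = DMSO vehicle control viability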
# Setup Conditions: second compound 3.16 µM; first compound 0.1 µM; stronger effect = lower value
Threshold check on viability, T/C: strictly below 20% is met; on or above 20% is not met.

Compound | System Name | Class Name
Nc1ccn(C2OC(CO)C(O)C2(F)F)c(=O)n1 (stereo not given) + C#Cc1c(F)ccc2cc(O)cc(-c3ncc4c(N5CC6CCC(C5)N6)nc(OCC56CCCN5CC(F)C6)nc4c3F)c12 | 422866-222-R5-J1-PDC complex spheroids viability | not met
CC(Nc1ccc2c(c1)OCCn1cc(N3C(=O)OCC3C(F)F)nc1-2)C(N)=O (stereo not given) + C#Cc1c(F)ccc2cc(O)cc(-c3ncc4c(N5CC6CCC(C5)N6)nc(OCC56CCCN5CC(F)C6)nc4c3F)c12 | 422866-222-R5-J1-PDC complex spheroids viability | met
CC(C)NCC(C(=O)N1CCN(c2ncnc3c2C(C)CC3O)CC1)c1ccc(Cl)cc1 (stereo not given) + C#Cc1c(F)ccc2cc(O)cc(-c3ncc4c(N5CC6CCC(C5)N6)nc(OCC56CCCN5CC(F)C6)nc4c3F)c12 | 422866-222-R5-J1-PDC complex spheroids viability | not met
O=C(c1ccc(F)c(F)c1Nc1ccc(I)cc1F)N1CC(O)([C@@H]2CCCCN2)C1 + C#Cc1c(F)ccc2cc(O)cc(-c3ncc4c(N5CC6CCC(C5)N6)nc(OCC56CCCN5CC(F)C6)nc4c3F)c12 | 422866-222-R5-J1-PDC complex spheroids viability | not met
CCC(CC)c1cc(NC2CCC(N)C2)n2nccc2n1 (stereo not given) + C#Cc1c(F)ccc2cc(O)cc(-c3ncc4c(N5CC6CCC(C5)N6)nc(OCC56CCCN5CC(F)C6)nc4c3F)c12 | 422866-222-R5-J1-PDC complex spheroids viability | not met

###

# System: 422866-222-R5-J1-PDC complex spheroids viability
# Procedure Details: Anticancer human tumor 422866-222-R5-J1-PDC cell line growth inhibition [RAS];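 note: spheroids exposed to compounds for 7 days; 100% = DMSO vehicle control viability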
# Setup Conditions: second compound 10 µM; first compound 0.00316 µM; stronger effect = lower value

Compound | viability, T/C / %
C=CC(=O)N1CCN(c2nc(OCC3CCCN3C)nc3c(F)c(-c4nc(N)cc(C)c4C(F)(F)F)c(Cl)cc23)C(C)C1 (stereo not drawn) + C#Cc1c(F)ccc2cc(O)cc(-c3ncc4c(N5CC6CCC(C5)N6)nc(OCC56CCCN5CC(F)C6)nc4c3F)c12 | 17.9
CC(C)n1nc(-c2ccc3oc(N)nc3c2)c2c(N)ncnc21 + C#Cc1c(F)ccc2cc(O)cc(-c3ncc4c(N5CC6CCC(C5)N6)nc(OCC56CCCN5CC(F)C6)nc4c3F)c12 | 17.4
CCN1CCN(Cc2ccc(Nc3ncc(F)c(-c4cc(F)c5nc(C)n(C(C)C)c5c4)n3)nc2)CC1 + C#Cc1c(F)ccc2cc(O)cc(-c3ncc4c(N5CC6CCC(C5)N6)nc(OCC56CCCN5CC(F)C6)nc4c3F)c12 | 23.2

###

Reported viability, T/C is given for each of the following compounds.
# Tested on: 422866-222-R5-J1-PDC complex spheroids viability
# Procedure Details: Anticancer human tumor 422866-222-R5-J1-PDC cell line growth inhibition [RAS];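 note: spheroids exposed to compounds for 7 days; 100% = DMSO vehicle control viability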
# Setup Conditions: second compound 0.316 µM; first compound 0.003 µM; stronger effect = lower value

Compound | System Name | viability, T/C / %
CC1(C)CCC(Nc2ncc(C(F)(F)F)c(-c3c[nH]c4c(P(C)(C)=O)c(C#N)ccc34)n2)CN1 (centres undefined) + C#Cc1c(F)ccc2cc(O)cc(-c3ncc4c(N5CC6CCC(C5)N6)nc(OCC56CCCN5CC(F)C6)nc4c3F)c12 | 422866-222-R5-J1-PDC complex spheroids viability | 66.4
CC1(C)CCC(Nc2ncc(C(F)(F)F)c(-c3c[nH]c4c(P(C)(C)=O)c(C#N)ccc34)n2)CN1 (centres undefined) + C=CC(=O)N1CCN(c2nc(OCC3CCCN3C)nc3c(F)c(-c4nc(N)cc(C)c4C(F)(F)F)c(Cl)cc23)C(C)C1 | 422866-222-R5-J1-PDC complex spheroids viability | 20.3
CCc1c2c(nc3ccc(O)cc13)-c1cc3c(c(=O)n1C2)COC(=O)[C@]3(O)CC + C#Cc1c(F)ccc2cc(O)cc(-c3ncc4c(N5CC6CCC(C5)N6)nc(OCC56CCCN5CC(F)C6)nc4c3F)c12 | 422866-222-R5-J1-PDC complex spheroids viability | 36.4
CCc1c2c(nc3ccc(O)cc13)-c1cc3c(c(=O)n1C2)COC(=O)[C@]3(O)CC + C=CC(=O)N1CCN(c2nc(OCC3CCCN3C)nc3c(F)c(-c4nc(N)cc(C)c4C(F)(F)F)c(Cl)cc23)C(C)C1 | 422866-222-R5-J1-PDC complex spheroids viability | 17.5

###

# System: 422866-222-R5-J1-PDC complex spheroids viability
# Procedure Details: Anticancer human tumor 422866-222-R5-J1-PDC cell line growth inhibition [RAS];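 note: spheroids exposed to compounds for 7 days; 100% = DMSO vehicle control viability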
# Setup Conditions: second compound 0.1 µM; first compound 0.316 µM; stronger effect = lower value

Compound | Unit Name | viability, T/C
C=CC(=O)N1CCN(c2nc(OCC3CCCN3C)nc3c(F)c(-c4nc(N)cc(C)c4C(F)(F)F)c(Cl)cc23)C(C)C1 (stereo not given) + C#Cc1c(F)ccc2cc(O)cc(-c3ncc4c(N5CC6CCC(C5)N6)nc(OCC56CCCN5CC(F)C6)nc4c3F)c12 | % | 20.9
Nc1ccn(C2OC(CO)C(O)C2(F)F)c(=O)n1 (stereo not given) + C=CC(=O)N1CCN(c2nc(OCC3CCCN3C)nc3c(F)c(-c4nc(N)cc(C)c4C(F)(F)F)c(Cl)cc23)C(C)C1 | % | 14.8
O=C(c1ccc(F)c(F)c1Nc1ccc(I)cc1F)N1CC(O)([C@@H]2CCCCN2)C1 + C=CC(=O)N1CCN(c2nc(OCC3CCCN3C)nc3c(F)c(-c4nc(N)cc(C)c4C(F)(F)F)c(Cl)cc23)C(C)C1 | % | 14.9
Nc1ccn(C2OC(CO)C(O)C2(F)F)c(=O)n1 (stereo not given) + C#Cc1c(F)ccc2cc(O)cc(-c3ncc4c(N5CC6CCC(C5)N6)nc(OCC56CCCN5CC(F)C6)nc4c3F)c12 | % | 39.6
CC(=O)OC12COC1CC(O)C1(C)C(=O)C(O)C3=C(C)C(OC(=O)C(O)C(NC(=O)OC(C)(C)C)c4ccccc4)CC(O)(C(OC(=O)c4ccccc4)C21)C3(C)C (stereo not given) + C=CC(=O)N1CCN(c2nc(OCC3CCCN3C)nc3c(F)c(-c4nc(N)cc(C)c4C(F)(F)F)c(Cl)cc23)C(C)C1 | % | 18.1

Reference source: PubChem BioAssay AID2060901
